- Experimental Protocol: Liver microsomes stability, human
- Test Parameters: Human, With NADPH, 0 min

Compound | Unit String | Remaining Percentage (%) 0 min
[2H]C([2H])N1CCC(c2c[nH]c3cccc(O)c23)C1 (stereo not shown) | % | 100.00
[2H]C([2H])N1CCC(c2c[nH]c3cccc(OCc4ccccc4)c23)C1 (single isomer, unassigned) | % | 100.00
[2H]C1([2H])CC(c2c[nH]c3cccc(O)c23)C([2H])([2H])N1 (stereo not shown) | % | 100.00
[2H]C1([2H])CC(c2c[nH]c3cccc(OCc4ccccc4)c23)C([2H])([2H])N1C (single isomer, unassigned) | % | 100.00
